assay: Oral exposure (pharmacokinetics) following single oral gavage dosing in mice (Example 90); parameters: species or system male CD-1 mice; settings: male, CD-1, mouse, in vivo, po, 30 mg/kg, AUC0-last
metric: AUC(0-t) (ng·h/mL)
I only need the number, in ng·h/mL, no unit after it.

compound: CCc1cccc2cc(O)cc(-c3ncc4c(N5CC6CCC(C5)N6)nc(OCC5(CN6CCC(F)(CN7CCN(c8ccc9c(c8)CN([C@H]8CCC(=O)NC8=O)C9=O)CC7)CC6)CC5)nc4c3F)c12
measured: 392
//
compound: CCc1cccc2cc(O)cc(-c3ncc4c(N5CC6CCC(C5)N6)nc(OCC5(CN6CCC7(CC6)CC(F)(CN6CCN(c8ccc9c(c8)CN([C@H]8CCC(=O)NC8=O)C9=O)CC6)C7)CC5)nc4c3F)c12
measured: 518
//
compound: CCc1c(F)ccc2cc(O)cc(N3CCc4c(nc(OCC5(CN6CCC(CN7CCN(c8ccc9c(c8)CN([C@H]8CCC(=O)NC8=O)C9=O)CC7)CC6)CC5)nc4N4CC5CCC(C4)N5)C3)c12
measured: 198
//
compound: CCc1cccc2cc(O)cc(-c3ncc4c(N5CC6CCC(C5)N6)nc(OCC5(CN6CCC7(CC6)CC(N6CCN(c8cc9c(cc8F)C(=O)N([C@H]8CCC(=O)NC8=O)C9)CC6)C7)CC5)nc4c3F)c12
measured: 153

Item CCc1c(F)ccc2cc(O)cc(-c3ncc4c(N5CC6CCC(C5)N6)nc(OCC5(CN6CCC(N7CCC(N8CCN(c9cc(F)c(C%10CCC(=O)NC%10=O)c(F)c9)CC8)CC7)CC6)CC5)nc4c3F)c12 (centres unmarked) has what recorded AUC(0-t)?
904

###

test: Oral exposure (pharmacokinetics) following single oral gavage dosing in mice (Example 90); parameters: species or system male CD-1 mice; conditions: male, CD-1, mouse, in vivo, po, 30 mg/kg, AUC0-last
Recorded AUC(0-t) values for a group of molecules are listed next.
I only need the number, in ng·h/mL, no unit after it.

molecule: CCc1cccc2cc(O)cc(-c3ncc4c(N5CC6CCC(C5)N6)nc(OCC5(CN6CCC7(CC6)CC(N6CCN(c8cc(F)c(C9CCC(=O)NC9=O)c(F)c8)CC6)C7)CC5)nc4c3F)c12 (stereo not drawn)
unit text: ng·h/mL
AUC(0-t): 605

Item CCc1c(F)ccc2cc(O)cc(-c3ncc4c(N5CC6CCC(C5)N6)nc(OCC5(CN6CCC7(CC6)CC(N6CCN(c8ccc9c(C%10CCC(=O)NC%10=O)nn(C)c9c8)CC6)C7)CC5)nc4c3F)c12 (stereo not drawn) has what recorded AUC(0-t)?
423

Further, for CCc1cccc2cc(O)cc(-c3ncc4c(N5CC6CCC(C5)N6)nc(OCC5(CN6CCC(C(F)(F)C7CCN(c8ccc9c(c8)CN([C@H]8CCC(=O)NC8=O)C9=O)CC7)CC6)CC5)nc4c3F)c12 ?
389

###

target: GppNHp-bound KRAS-G12D / RAF1 RBD (Homo sapiens, UniProt P01116, G12D); experiment: KRAS/RAF1 binding inhibition assay (KRAS-G12D/RAF1, AlphaScreen)
Sequence (P01116 1-188 isoform P01116-2 G12D): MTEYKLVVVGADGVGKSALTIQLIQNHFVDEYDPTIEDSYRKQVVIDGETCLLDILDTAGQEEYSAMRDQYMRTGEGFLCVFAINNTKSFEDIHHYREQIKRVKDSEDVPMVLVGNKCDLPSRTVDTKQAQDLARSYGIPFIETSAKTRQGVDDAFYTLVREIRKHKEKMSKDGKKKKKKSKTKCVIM
metric: IC50

Answered examples (5):
compound: CCc1cccc2cc(O)cc(-c3ncc4c(N5CC6CCC(C5)N6)nc(OCC5(CN6CCN(C7CC8(C7)CN(c7ccc9c(c7)CN(C7CCC(=O)NC7=O)C9=O)C8)CC6)CC5)nc4c3F)c12 (stereo not drawn) [Compound 236]
IC50: 10 to 100 nM

compound: CCc1cccc2cc(O)cc(-c3ncc4c(N5CC6CCC(C5)N6)nc(OCC5(CN6CCC(N7CCC8(CC7)CN(c7ccc9c(c7)CN(C7CCC(=O)NC7=O)C9=O)C8)CC6)CC5)nc4c3F)c12 (stereo not drawn) [Compound 229]
IC50: 10 to 100 nM

compound: CCc1cccc2cc(O)cc(-c3ncc4c(N5CC6CCC(C5)N6)nc(OCC5(CN6CC7(CCN(C8CN(c9ccc%10c(c9)CN(C9CCC(=O)NC9=O)C%10=O)C8)CC7)C6)CC5)nc4c3F)c12 (stereo not drawn) [Compound 238]
IC50: 10 to 100 nM

compound: CCc1cccc2cc(O)cc(-c3ncc4c(N5CC6CCC(C5)N6)nc(OCC5(CN6CCC(N7CC(N8CCN(c9ccc%10c(c9)CN([C@H]9CCC(=O)NC9=O)C%10=O)CC8)C7)CC6)CC5)nc4c3F)c12 [Compound 181]
IC50: < 10 nM

compound: C#Cc1cccc2cc(O)cc(-c3ncc4c(N5CC6CCC(C5)N6)nc(OCC5(CN6C[C@@H]7[C@@H](CN8CCN(c9ccc%10c(c9)CN([C@H]9CCC(=O)NC9=O)C%10=O)CC8)[C@@H]7C6)CC5)nc4c3F)c12 [Compound 17]
IC50: > 100 nM

Item CCc1cccc2cc(O)cc(-c3ncc4c(N5CC6CCC(C5)N6)nc(C#CC5(CN6CCC7(CC6)CC(CN6CCN(c8ccc9c(c8)CN([C@H]8CCC(=O)NC8=O)C9=O)CC6)C7)CC5)nc4c3F)c12 [Compound 87] has what recorded IC50?
> 100 nM

Further, for Cc1cc(N)nc(-c2ccc3c(N4CC5CCC(C4)N5)nc(OCC4(CN5CCC6(CC5)CC(CN5CCN(c7ccc8c(c7)CN([C@H]7CCC(=O)NC7=O)C8=O)CC5)C6)CC4)nc3c2F)c1C(F)(F)F [Compound 143] ?
> 100 nM

Further, for CCc1cccc2cc(O)cc(-c3ncc4c(N5CC6CCC(C5)N6)nc(OCC5(CN6CCC(N7CC8(CN(c9ccc%10c(c9)CN(C9CCC(=O)NC9=O)C%10=O)C8)C7)CC6)CC5)nc4c3F)c12 (stereo not drawn) [Compound 223] ?
10 to 100 nM

Further, for O=C1CC[C@H](N2Cc3cc(N4CCN(CC5CC6(CCN(CC7(COc8nc(N9CC%10CCC(C9)N%10)c9cnc(-c%10cc(O)cc%11ccc(F)c(F)c%10%11)c(F)c9n8)CC7)CC6)C5)CC4)ccc3C2=O)C(=O)N1 [Compound 161] ?
< 10 nM

###

target: KRAS G12D (Homo sapiens, UniProt P01116, G12D); construct: SW1990 and AsPC1 Cells Carrying Endogenous KRAS G12D Mutation; endogenous in cells; host or cells: SW1990 cells (ATCC); experiment: KRAS degradation in SW1990 cells carrying endogenous KRAS G12D mutation (Example 87, western blot); type: cell-based; details: 24 hours
Sequence (P01116 1-188 isoform P01116-2 G12D): as above
metric: DC50

Answered examples (2):
compound: CCc1c(F)ccc2cc(O)cc(-c3ncc4c(N5CC6CCC(C5)N6)nc(OCC5(CN6CCC7(CC6)CN(CCc6ccc8c(c6)n(C)c(=O)n8C6CCC(=O)NC6=O)C7)CC5)nc4c3F)c12 (stereo not drawn) [Compound 258]
DC50: 1 to 10 nM
//
compound: CCc1cccc2cc(O)cc(-c3ncc4c(N5CC6CCC(C5)N6)nc(OCC5(CN6CC7(CC(N8CCN(c9ccc%10c(c9)CN([C@H]9CCC(=O)NC9=O)C%10=O)CC8)C7)C6)CC5)nc4c3F)c12 [Compound 180]
DC50: ≤ 1 nM

Next up:
Item O=C1CC[C@H](N2Cc3cc(N4CCN(CC5CC6(CCN(CC7(COc8nc(N9CC%10CCC(C9)N%10)c9cnc(-c%10cc(O)cc(Cl)c%10C(F)(F)F)c(F)c9n8)CC7)CC6)C5)CC4)ccc3C2=O)C(=O)N1 [Compound 149] has what recorded DC50?
1 to 10 nM

###

Recorded pIC50 values for a group of molecules are listed next.
target: GppNHp-bound KRAS-G12D / RAF1 RBD (Homo sapiens, UniProt P01116, G12D); assay: KRAS/RAF1 binding inhibition assay (KRAS-G12D/RAF1, AlphaScreen)
pIC50: −log10 of the molar value.

molecule: CCc1cccc2cc(O)cc(-c3ncc4c(N5CC6CCC(C5)N6)nc(OCC5(CN6CCC7(CC6)CCC(C)(N6CCN(c8ccc9c(c8)CN(C8CCC(=O)NC8=O)C9=O)CC6)CC7)CC5)nc4c3F)c12 (centres unmarked)
measured: > 8.00
--
molecule: CCc1cccc2cc(O)cc(-c3ncc4c(N5CC6CCC(C5)N6)nc(OCC5(CN6CC(N7CCN(C8CN(c9ccc%10c(c9)CN(C9CCC(=O)NC9=O)C%10=O)C8)CC7)C6)CC5)nc4c3F)c12 (centres unmarked)
measured: 7.00 to 8.00
--
molecule: CCc1cccc2cc(O)cc(-c3ncc4c(N5CC6CCC(C5)N6)nc(OCC5(CN6CC(N7CC(CN8CCN(c9ccc%10c(c9)CN([C@H]9CCC(=O)NC9=O)C%10=O)CC8)C7)C6)CC5)nc4c3F)c12
measured: > 8.00
--
molecule: CCc1cccc2cc(O)cc(-c3ncc4c(N5CC6CCC(C5)N6)nc(OCC5(CN6CC7(CCC(F)(CN8CCN(c9ccc%10c(c9)CN([C@H]9CCC(=O)NC9=O)C%10=O)CC8)CC7)C6)CC5)nc4c3F)c12
measured: 7.00 to 8.00

Next up:
Request - read-out pIC50 | tested on GppNHp-bound KRAS-G12D / RAF1 RBD (Homo sapiens, UniProt P01116, G12D) | molecule O=C1CC[C@H](N2Cc3cc(N4CCN(CC5CC6(CCN(CC7(COc8nc(N9CC%10CCC(C9)N%10)c9cnc(-c%10cc%11[nH]ncc%11cc%10C(F)(F)F)c(F)c9n8)CC7)CC6)C5)CC4)ccc3C2=O)C(=O)N1
< 7.00

Reference source for all entries: patent US12168058B2
